Experiment: chemical genetic growth profiling, strain panel (AID 1159580);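 note: tested at 20 µM; growth read once vehicle control cultures reached saturation at 30 °C; 1 = growth at the plate median or of vehicle wells; lower values mean less growth of the strain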
Conditions: S. cerevisiae deletion strains, growth OD, locus YDL132W, strain cdc53, active compounds read low
Screen size: about 5,500 compounds; about 2,000 (36%) were called active. Roughly 18% stayed inconclusive and do not appear here. This is one part of the list.
normalized growth overview

{"Compound": "COc1ccc(Oc2ccc([N+](=O)[O-])cc2C(=O)O/N=C(/N)c2ccc(C(F)(F)F)cc2)cc1", "normalized growth": "0.982 (inactive)"}
{"Compound": "Cn1ncc(-c2nc(-c3ccc(Cl)cc3)cs2)c1N", "normalized growth": "0.931 (inactive)"}
{"Compound": "O=[N+]([O-])c1cc(C(F)(F)F)ccc1Sc1n[nH]c(-c2cc(Cl)cc(Cl)c2)n1", "normalized growth": "0.937 (inactive)"}

Bench note: what normalized growth did `FC(F)(F)c1ccncc1-c1nc(-c2ccc(Cl)cc2)cs1` show?
0.973 (inactive)

Bench note: what normalized growth did CCOC(=O)C(O)(c1ccc(NC(=O)c2ccc(Cl)c(Cl)c2)cc1)C(F)(F)F (stereo not drawn) show?
0.997 (inactive)

Bench note: what normalized growth did `O=C(Nc1ccc(F)cc1F)c1cc(Cl)ccc1O` show?
0.97 (inactive)

Bench note: what normalized growth did `O=S(=O)(Nc1c(F)cccc1F)c1ccc(Cl)c(Cl)c1` show?
0.961 (inactive)

Bench note: what normalized growth did `CC(C)(C)c1ccc(-c2cc(NC(=O)c3ccc(Cl)cc3)n[nH]2)cc1` show?
1.03 (inactive)

Bench note: what normalized growth did `Cc1ccc2nc3c(nc2c1)-c1ccccc1C3=O` show?
0.932 (inactive)

Bench note: what normalized growth did `Cc1cc(N=Cc2cc(Cl)cc(Cl)c2O)no1` show?
0.975 (inactive)

Bench note: what normalized growth did `CC(C)Sc1c(Cl)cccc1NC(=O)Nc1cccc(C(F)(F)F)c1` show?
0.975 (inactive)

Bench note: what normalized growth did `S=C(NCc1cccs1)Nc1cc(Cl)cc(Cl)c1` show?
0.962 (inactive)

Bench note: what normalized growth did `O=[N+]([O-])c1ccc(Sc2ccccc2)cc1O` show?
0.909 (inactive)

Bench note: what normalized growth did `Cc1cc(C)c2cc(C(=O)NCCNc3ccc(C(F)(F)F)cn3)[nH]c2c1` show?
0.992 (inactive)

Bench note: what normalized growth did `COC(=O)c1cccc(NS(=O)(=O)c2ccc(Cl)c(Cl)c2)c1` show?
0.981 (inactive)

Bench note: what normalized growth did `CCOC(=O)c1cnc(-c2ccccn2)[nH]c1=O` show?
0.948 (inactive)

Bench note: what normalized growth did `COC(=O)c1cc(I)c(OC(C)=O)c(I)c1` show?
0.939 (inactive)

Bench note: what normalized growth did `O=[N+]([O-])c1ccc(Sc2ccccc2)c([N+](=O)[O-])c1` show?
0.867 (active)

Bench note: what normalized growth did `Cn1cc(Br)c(-c2cccc(NS(=O)(=O)c3ccc(Cl)cc3)c2)n1` show?
0.994 (inactive)

Bench note: what normalized growth did `O=C(Nc1cc(Cl)cc(Cl)c1)c1cc(Cl)ccc1O` show?
0.917 (inactive)

Bench note: what normalized growth did N#CC(C(=O)Nc1cccc(C(F)(F)F)c1)C(=S)Nc1ccccc1Cl (stereo not drawn) show?
0.976 (inactive)

Bench note: what normalized growth did `COc1ccc(OC)c2nc3c(nc12)C(=O)c1ccccc1-3` show?
0.972 (inactive)

Bench note: what normalized growth did COc1cc(C2CC(=S)Nc3ccccc3S2)cc(OC)c1OC (stereo not drawn) show?
0.999 (inactive)
